# MEASUREMENT_TARGET: MERTK (UniProt Q12866)
# Sequence (Q12866 whole entry, looked up): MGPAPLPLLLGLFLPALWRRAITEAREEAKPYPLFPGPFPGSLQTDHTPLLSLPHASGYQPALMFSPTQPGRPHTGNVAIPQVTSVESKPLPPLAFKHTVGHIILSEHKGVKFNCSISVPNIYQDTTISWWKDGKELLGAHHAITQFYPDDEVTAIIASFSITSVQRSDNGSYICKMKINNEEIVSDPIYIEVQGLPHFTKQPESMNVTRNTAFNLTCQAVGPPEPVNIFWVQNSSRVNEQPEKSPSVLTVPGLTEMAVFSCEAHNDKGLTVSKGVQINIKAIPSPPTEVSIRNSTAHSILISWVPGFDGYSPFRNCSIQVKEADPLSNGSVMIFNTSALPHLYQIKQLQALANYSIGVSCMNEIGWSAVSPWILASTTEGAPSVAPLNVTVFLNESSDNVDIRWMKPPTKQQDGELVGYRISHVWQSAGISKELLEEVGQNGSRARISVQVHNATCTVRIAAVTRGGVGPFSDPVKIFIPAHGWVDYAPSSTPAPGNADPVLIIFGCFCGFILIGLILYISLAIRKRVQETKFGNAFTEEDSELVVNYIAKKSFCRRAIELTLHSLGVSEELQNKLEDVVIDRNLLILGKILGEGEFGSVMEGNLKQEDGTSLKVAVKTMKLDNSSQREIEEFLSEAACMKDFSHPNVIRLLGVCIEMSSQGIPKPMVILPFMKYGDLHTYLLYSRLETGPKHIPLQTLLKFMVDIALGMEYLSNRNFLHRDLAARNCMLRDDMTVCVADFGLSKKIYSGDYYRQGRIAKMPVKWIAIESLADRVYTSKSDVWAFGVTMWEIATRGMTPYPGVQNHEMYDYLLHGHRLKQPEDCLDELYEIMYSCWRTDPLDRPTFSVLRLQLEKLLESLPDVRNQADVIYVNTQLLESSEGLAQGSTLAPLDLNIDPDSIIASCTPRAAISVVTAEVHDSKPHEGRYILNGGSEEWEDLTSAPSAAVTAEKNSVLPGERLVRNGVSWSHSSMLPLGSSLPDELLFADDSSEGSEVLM
# PROTOCOL: phosphorylation enrichment, bacterial display (enrichment ratio); higher = better substrate or ligand; peptides without Tyr show the background
Cut-off 0.5 on phosphorylation enrichment, inclusive. At or above means YES; below means NO.

- SEQUENCE_DATA: "DLDFTYIYPNI [PTEN_Y27_L25F]"
  MEASUREMENT_TARGET: "MERTK (UniProt Q12866)"
  ASSIGNED_LABEL: "YES"
- SEQUENCE_DATA: "KLVQLYGVCTK [BTK_Y461]"
  MEASUREMENT_TARGET: "MERTK (UniProt Q12866)"
  ASSIGNED_LABEL: "YES"
- SEQUENCE_DATA: "FADPFYDFEIE [ZC3H18_Y372_YF]"
  MEASUREMENT_TARGET: "MERTK (UniProt Q12866)"
  ASSIGNED_LABEL: "YES"

[Q] Test whether the sequence YPIDHYLGKEM [G6PD_Y202_R198P] records phosphorylation enrichment of 0.5 or higher.
[A] NO

[Q] Test whether the sequence RLSELYLRRNP [CFAP410_Y68_R73P] records phosphorylation enrichment of 0.5 or higher.
[A] NO

====

# System: AncSZ
# PROTOCOL: phosphorylation enrichment, bacterial display (enrichment ratio); higher = better substrate or ligand; peptides without Tyr show the background
MEASUREMENT_TYPE: phosphorylation enrichment
The response must contain the number and no unit.

response.value for GFEEAYSVSKK [PAFAH1B1_Y28_F31S_YF] (field: phosphorylation enrichment) = 0.697

response.value for VFPATYHPDHW [EFCAB12_Y544_YF] (field: phosphorylation enrichment) = 0.677

response.value for QQLQGYVPSNF [FRK_Y99_I100V_YF] (field: phosphorylation enrichment) = 0.699

response.value for LFEDRYLLGPS [ASS1_Y87_T91P_YF] (field: phosphorylation enrichment) = 1.07

response.value for IQKWEYVPLGP [FAH_Y244] (field: phosphorylation enrichment) = 1.02

response.value for KKCTRYIDCDR [ASPA_Y64_L69R] (field: phosphorylation enrichment) = 0.832

====

# MEASUREMENT_TARGET: SHP2-C SH2;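 note: peptide library displayed on the E. coli surface as eCPX fusions, selected cells deep-sequenced, score is each peptide's frequency after selection divided by its frequency in the input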
# PROTOCOL: SH2 binding enrichment of the phosphorylated peptide, bacterial display (enrichment ratio); higher = better substrate or ligand; peptides without Tyr show the background
MEASUREMENT_TYPE: SH2 binding enrichment

Some solved cases for reference:
- SEQUENCE_DATA: "CGPLLYGLVHQ [PRKCG_Y122_S119P]"
  SH2 binding enrichment: 0.881
- SEQUENCE_DATA: "VVHGSYDEIEG [SEC24A_Y263_S261G]"
  SH2 binding enrichment: 0.604
- SEQUENCE_DATA: "PELINYHQHFS [BTK_Y361_N365Y_YF]"
  SH2 binding enrichment: 0.934
- SEQUENCE_DATA: "PSQRRNVYYYS [PTEN_Y174_Y174N]"
  SH2 binding enrichment: 0.828
- SEQUENCE_DATA: "ATARPYSPYII [LRP5_Y1528_R1529S]"
  SH2 binding enrichment: 0.764
- SEQUENCE_DATA: "ELAVNYQEQAS [SLC9A9_Y591_I589V]"
  SH2 binding enrichment: 0.678
- SEQUENCE_DATA: "PHIKTYMRPSP [TDP1_Y497]"
  SH2 binding enrichment: 0.777
- SEQUENCE_DATA: "NKVFTYIFIME [SCN4A_Y1074_D1069N]"
  SH2 binding enrichment: 0.765
- SEQUENCE_DATA: "CKRQFYLFKGK [RSPO4_Y112_YF]"
  SH2 binding enrichment: 1.05
- SEQUENCE_DATA: "PLDGEYFTRQI [TP53_Y327_L330R]"
  SH2 binding enrichment: 0.836

Shift focus to the following entry.
response.value for LTRDIYKNDFF [ROS1_Y2110_A2106T_YF] (field: SH2 binding enrichment) = 0.731

====

Catalogue of phosphorylation enrichment readings, one per entry.
# MEASUREMENT_TARGET: EPHB1 (UniProt P54762)
# Sequence (P54762 whole entry, looked up): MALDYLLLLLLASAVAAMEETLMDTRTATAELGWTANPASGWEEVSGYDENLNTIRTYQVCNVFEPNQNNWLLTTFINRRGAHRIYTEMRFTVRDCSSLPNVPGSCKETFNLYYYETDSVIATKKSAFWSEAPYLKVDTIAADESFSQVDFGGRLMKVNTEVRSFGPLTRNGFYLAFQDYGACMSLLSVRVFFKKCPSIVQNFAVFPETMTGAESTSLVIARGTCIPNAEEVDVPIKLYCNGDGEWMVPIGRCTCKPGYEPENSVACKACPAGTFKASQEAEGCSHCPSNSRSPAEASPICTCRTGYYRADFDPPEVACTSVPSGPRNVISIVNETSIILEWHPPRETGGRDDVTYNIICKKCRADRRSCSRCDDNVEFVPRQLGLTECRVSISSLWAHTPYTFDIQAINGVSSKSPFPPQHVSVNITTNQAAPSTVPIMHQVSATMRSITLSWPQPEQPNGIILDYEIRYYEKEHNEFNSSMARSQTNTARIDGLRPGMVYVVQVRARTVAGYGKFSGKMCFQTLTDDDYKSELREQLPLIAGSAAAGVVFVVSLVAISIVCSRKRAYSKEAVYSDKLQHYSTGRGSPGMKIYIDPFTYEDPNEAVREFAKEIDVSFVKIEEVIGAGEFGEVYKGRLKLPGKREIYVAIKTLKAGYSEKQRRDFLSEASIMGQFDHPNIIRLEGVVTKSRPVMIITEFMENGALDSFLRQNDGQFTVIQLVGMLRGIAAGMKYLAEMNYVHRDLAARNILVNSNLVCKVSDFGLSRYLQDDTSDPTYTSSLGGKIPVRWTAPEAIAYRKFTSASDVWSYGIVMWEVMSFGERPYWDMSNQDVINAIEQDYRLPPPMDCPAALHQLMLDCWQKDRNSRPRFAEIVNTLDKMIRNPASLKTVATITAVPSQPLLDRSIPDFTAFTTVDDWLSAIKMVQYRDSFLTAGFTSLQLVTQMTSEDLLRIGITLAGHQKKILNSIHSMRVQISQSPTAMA
# PROTOCOL: phosphorylation enrichment, bacterial display (enrichment ratio); higher = better substrate or ligand; peptides without Tyr show the background
The response must contain the number and no unit.

Some solved cases for reference:
- SEQUENCE_DATA: "YCRITYDIFPF [INTS13_Y67_M66T]"
  MEASURED_RESULT: 3.8
- SEQUENCE_DATA: "VLTSKYRGGGG [HBA1_Y141]"
  MEASURED_RESULT: 0.475
- SEQUENCE_DATA: "CDDGKYVFVVT [RPS6KA3_Y488_Y483C_YF]"
  MEASURED_RESULT: 0.604
- SEQUENCE_DATA: "SSPQPYLVPFL [TAF4_Y652]"
  MEASURED_RESULT: 0.415
- SEQUENCE_DATA: "QDLLLYQTHSE [PKHD1_Y255_F253L]"
  MEASURED_RESULT: 1.27

response.value for SLNEVYTKNKT [MSH2_Y563_E562V] (field: phosphorylation enrichment) = 0.375

response.value for ETGNLYIAKVE [CNTN4_Y180] (field: phosphorylation enrichment) = 0.522

response.value for YTGDIYSNSNL [LZTR1_Y141] (field: phosphorylation enrichment) = 1.19

response.value for KLVQLYGVCTK [BTK_Y461] (field: phosphorylation enrichment) = 1.33

response.value for SIIKDYFHRGA [GATM_Y203] (field: phosphorylation enrichment) = 0.376

response.value for WRRLIYRCQVG [NR2E3_Y81_R76W] (field: phosphorylation enrichment) = 0.389

====

# Tested on: c-Abl (mouse)
# PROTOCOL: phosphorylation enrichment, bacterial display (enrichment ratio); higher = better substrate or ligand; peptides without Tyr show the background
MEASUREMENT_TYPE: phosphorylation enrichment
The response must contain the number and no unit.

Short answer on c-Abl (mouse) for KYLENYLNRLL [PLD2_Y169] , phosphorylation enrichment: 0.809

====

# MEASUREMENT_TARGET: Hck (UniProt P08631)
# Sequence (P08631 whole entry, looked up): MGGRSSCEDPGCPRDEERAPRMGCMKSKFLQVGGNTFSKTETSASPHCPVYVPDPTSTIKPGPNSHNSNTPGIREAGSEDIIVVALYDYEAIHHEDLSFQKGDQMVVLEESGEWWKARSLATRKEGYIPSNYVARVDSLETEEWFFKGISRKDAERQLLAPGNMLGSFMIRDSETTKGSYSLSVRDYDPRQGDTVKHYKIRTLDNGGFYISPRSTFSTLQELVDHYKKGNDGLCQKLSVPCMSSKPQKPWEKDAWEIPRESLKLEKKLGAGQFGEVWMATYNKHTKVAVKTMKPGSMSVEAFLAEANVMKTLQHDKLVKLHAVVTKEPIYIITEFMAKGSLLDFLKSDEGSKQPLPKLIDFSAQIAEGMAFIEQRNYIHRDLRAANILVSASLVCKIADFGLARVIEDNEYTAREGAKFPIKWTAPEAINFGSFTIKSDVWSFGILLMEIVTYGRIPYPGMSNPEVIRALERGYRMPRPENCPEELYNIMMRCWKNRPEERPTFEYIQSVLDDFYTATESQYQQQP
# PROTOCOL: phosphorylation enrichment, bacterial display (enrichment ratio); higher = better substrate or ligand; peptides without Tyr show the background
Catalogue of phosphorylation enrichment readings, one per entry.
The response must contain the number and no unit.

- SEQUENCE_DATA: "HFNLTYRILSF [MMP23B_Y95]"
  MEASUREMENT_TYPE: "phosphorylation enrichment"
  MEASURED_RESULT: 0.644

response.value for QDLLLYQTHSE [PKHD1_Y255_F253L] (field: phosphorylation enrichment) = 1.48

response.value for KVMANYVYKAG [MAML2_Y513_M514V] (field: phosphorylation enrichment) = 0.386

response.value for QTLTDYDIRFY [CSNK2A1_Y131] (field: phosphorylation enrichment) = 0.526

response.value for SVVVSYEPPEV [TP53_Y220_P219S] (field: phosphorylation enrichment) = 0.632

response.value for KACKHYLTKRT [ZBTB5_Y118_T121K] (field: phosphorylation enrichment) = 0.582

response.value for SDGKRYRVPSD [HHIPL2_Y395_H391D] (field: phosphorylation enrichment) = 0.346

====

# System: AncSZ
# PROTOCOL: phosphorylation enrichment, bacterial display (enrichment ratio); higher = better substrate or ligand; peptides without Tyr show the background
Cut-off 1 on phosphorylation enrichment, inclusive. At or above means fulfilled; below means not fulfilled.

Worked examples, 3 sequences total:
- SEQUENCE_DATA: "SECCKYKTDNP [OSMR_Y689_I691T]"
  ASSIGNED_LABEL: "not fulfilled"
- SEQUENCE_DATA: "SDGKRYRVPSD [HHIPL2_Y395_H391D]"
  ASSIGNED_LABEL: "not fulfilled"
- SEQUENCE_DATA: "RFLRGYRQDAY [HLA-A_Y137]"
  ASSIGNED_LABEL: "fulfilled"

[Q] Test whether the sequence GLSSAYGDLTS [KRT8_Y427_G429D] records phosphorylation enrichment of 1 or higher.
[A] not fulfilled

[Q] Test whether the sequence QTLTDYDIRFY [CSNK2A1_Y131] records phosphorylation enrichment of 1 or higher.
[A] fulfilled

[Q] Test whether the sequence DLDPNYVVSSR [CKM_Y125_L127V] records phosphorylation enrichment of 1 or higher.
[A] fulfilled

[Q] Test whether the sequence QLQVFYATRDQ [MIPEP_Y579_L582R] records phosphorylation enrichment of 1 or higher.
[A] fulfilled

[Q] Test whether the sequence LEQDEYALHSH [HADHB_Y244_R247H] records phosphorylation enrichment of 1 or higher.
[A] fulfilled

[Q] Test whether the sequence IVRSLYEDLED [VHL_Y185] records phosphorylation enrichment of 1 or higher.
[A] fulfilled

[Q] Test whether the sequence DKTGEYPVPLI [ACADM_Y73] records phosphorylation enrichment of 1 or higher.
[A] not fulfilled

[Q] Test whether the sequence PTFKHYANSTQ [SLC12A3_Y70_E68K_YF] records phosphorylation enrichment of 1 or higher.
[A] not fulfilled

[Q] Test whether the sequence HQIQSYTCEID [DES_Y331] records phosphorylation enrichment of 1 or higher.
[A] not fulfilled

[Q] Test whether the sequence FLAVGDHKPHI [IDS_Y225_Y225D] records phosphorylation enrichment of 1 or higher.
[A] not fulfilled

[Q] Test whether the sequence TQFWLYFAGNL [SLC25A5_Y112] records phosphorylation enrichment of 1 or higher.
[A] fulfilled

// provenance: the supplement of paper PMC10065799
